Quick reference for residual activity among some compounds
- Target Or Test System: UniProt:Q9H0K1
- Sequence (Q9H0K1 whole entry, looked up): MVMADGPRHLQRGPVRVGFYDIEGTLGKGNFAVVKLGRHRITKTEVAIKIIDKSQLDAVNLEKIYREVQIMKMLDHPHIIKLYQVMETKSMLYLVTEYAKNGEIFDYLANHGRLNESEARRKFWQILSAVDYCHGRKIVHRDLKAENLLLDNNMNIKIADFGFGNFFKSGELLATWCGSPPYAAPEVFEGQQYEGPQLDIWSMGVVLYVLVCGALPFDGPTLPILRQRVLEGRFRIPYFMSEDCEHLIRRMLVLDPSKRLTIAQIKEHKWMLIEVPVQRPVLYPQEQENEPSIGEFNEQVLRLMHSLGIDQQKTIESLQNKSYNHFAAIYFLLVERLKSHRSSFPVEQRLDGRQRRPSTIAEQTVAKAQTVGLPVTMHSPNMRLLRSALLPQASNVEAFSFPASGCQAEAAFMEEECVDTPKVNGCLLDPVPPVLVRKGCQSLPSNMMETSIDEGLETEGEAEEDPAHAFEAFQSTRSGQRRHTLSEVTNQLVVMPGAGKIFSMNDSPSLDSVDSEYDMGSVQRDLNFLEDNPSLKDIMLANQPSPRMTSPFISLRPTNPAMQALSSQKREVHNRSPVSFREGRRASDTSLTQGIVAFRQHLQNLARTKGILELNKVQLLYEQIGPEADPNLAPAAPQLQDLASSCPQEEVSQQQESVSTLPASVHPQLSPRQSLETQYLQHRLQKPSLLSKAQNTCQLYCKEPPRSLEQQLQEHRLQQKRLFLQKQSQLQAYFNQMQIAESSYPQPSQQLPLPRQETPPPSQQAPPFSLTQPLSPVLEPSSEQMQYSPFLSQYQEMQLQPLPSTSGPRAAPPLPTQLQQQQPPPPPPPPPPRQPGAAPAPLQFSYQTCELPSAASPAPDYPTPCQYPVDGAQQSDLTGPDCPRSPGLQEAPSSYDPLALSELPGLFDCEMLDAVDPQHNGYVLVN
- Assay Comment: radiometric filter-binding kinase assay, Kinase HotSpot
- Test Conditions: compound 0.5 µM; ATP 10 µM
Readout Name: residual activity (%)

CCN(CC)CCNC(=O)c1c(C)[nH]c(/C=C2\C(=O)Nc3ccc(Cl)cc32)c1C ... 42.7
N#C/C(=C(/N)Sc1ccc(N)cc1)c1ccccc1C(F)(F)F ... 101
O=C1NC(=O)/C(=C/c2ccc3c(c2)OC(F)(F)O3)S1 ... 101
N#CC(C#N)=C(N)/C(C#N)=C/c1ccc(O)cc1 ... 87.7
Cc1[nH]c(/C=C2\C(=O)Nc3ccc(S(=O)(=O)N(C)c4cccc(Cl)c4)cc32)c(C)c1C(=O)N1CCN(C)CC1 ... 86
CC(C)N(CCC(=O)c1ccc2ccccc2c1)Cc1ccccc1 ... 103
O=C1Nc2ccc(Cl)cc2/C1=C/c1cc(Cl)c(O)c(Cl)c1 ... 95
Nc1ncnc2[nH]nc(Nc3ccc(F)cc3)c12 ... 78.7
COc1ccc2c(c[n+](C)c3c4cc5c(cc4ccc23)OCO5)c1OC ... 95.5
Oc1cccc(-c2nc(N3CCOCC3)c3oc4ncccc4c3n2)c1 ... 98.9
CNc1cc2c(Nc3cccc(Br)c3)ncnc2cn1 ... 98.3
O=C(Nc1cccc(Nc2nccc(Nc3cccc(C(F)(F)F)c3)n2)c1)C1CC1 ... 103
CCN(CC)CCNC(=O)c1c(C)[nH]c(/C=C2\C(=O)Nc3ccc(F)cc32)c1C ... 27.8
O=C1NC(=O)c2c1c1c3ccccc3n3c1c1c2c2ccccc2n1C1CCC3O1 ... 33.9
